Reference for the values: PubChem BioAssay AID588397

- assayName: qHTS of small molecules that selectively kill Giardia lamblia: Hit Validation. Note: potency is the fitted concentration of half-maximal effect.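 Note: viability measured as ATP content by luminescence so killing lowers signal; trophozoites exposed to compounds for 48 h anaerobically at 37 °C; nearly all actives have a fitted effect of over 65% in size.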
- condition: Giardia lamblia trophozoite viability, dose-response; series mostly up to 38.3 µM
Screen size: about 1,300 compounds; about 1,000 (77%) were called active. Inconclusive results (about 7%) are left out. The set was probably picked from earlier hits. The list shows a part of the results.
Give measured Potency for each item. Keep answers brief.

QUERY: Recorded Potency of O=C(O)c1cc2ccccc2c(N=Nc2cccnc2)c1O , please.
RESULT: 2050 nM (active)

QUERY: Entry Cc1ccc(NC(=O)CN2C(=O)S/C(=C/c3ccc(O)c([N+](=O)[O-])c3)C2=O)cc1C please
RESULT: 1300 nM (active)

QUERY: Entry CC(=O)NC(Cc1cccc(C)c1)C(=O)NC1CCN(c2ncccc2[N+](=O)[O-])CC1 (stereo not given) please
RESULT: 4600 nM (active)

QUERY: Entry CC(=O)NC(Cc1cccc(F)c1)C(=O)NC1CCN(c2ncccc2[N+](=O)[O-])CC1 (stereo not given) please
RESULT: 2310 nM (active)

----------
- assayName: qHTS of small molecules that selectively kill Giardia lamblia: Hit Validation.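 Note: viability measured as ATP content by luminescence so killing lowers signal; trophozoites exposed to compounds for 48 h anaerobically at 37 °C; nearly all actives have a fitted effect of over 65% in size.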
- condition: Giardia lamblia trophozoite viability, dose-response; series mostly up to 38.3 µM
- Method: Giardia lamblia is a human pathogen afflicting impoverished nations, and the most common cause of outbreaks of diarrhea in the United States. Giardia has been classified by the CDC as a category B bioterrorism organism. The favored anti giardiasis drugs in the US are metronidazole or tinidazole, compounds that have undesirable side effects. […] 5. Dispense 4 ul/well ATPLite 1-Step Luminescence assay kit […] 7. Read luminescence signal on ViewLux plate reader
Among all 1,300 compounds or so, about 1,000 (77%) were called active. Roughly 7% stayed inconclusive and do not appear here. The call rests on the fitted dose curve; in most records, active means well fitted inhibition curve with a large enough effect; inconclusive means small, poorly fitted or top-dose-only effect; inactive means no such curve, though single readings can be large or run the other way. The set was probably picked from earlier hits. The list shows a part of the results.
Give your call using only these classes: y for active, n for inactive

QUERY: What is the recorded call for this compound in the test? O=C(NCCc1ccccc1)c1ccc(CS(=O)(=O)c2ccc(Cl)cc2)o1
RESULT: n

QUERY: Entry CCC(Oc1ccccc1)C(=O)Nc1ncc([N+](=O)[O-])s1 (stereo unspecified) please
RESULT: y

QUERY: Entry CCCCC(CC)C(=O)Nc1ncc([N+](=O)[O-])s1 (stereo unspecified) please
RESULT: y

QUERY: Entry CCCCc1cc(=O)oc2c(C)c(OCC(=O)NCc3ccccn3)ccc12 please
RESULT: n

QUERY: Entry O=C(COc1cccnc1[N+](=O)[O-])NCCc1ccc(Cl)cc1 please
RESULT: y

QUERY: Entry CC(OC(=O)c1ccc([N+](=O)[O-])s1)C(=O)NC1CCCCC1C (stereo unspecified) please
RESULT: y

----------
- assayName: qHTS of small molecules that selectively kill Giardia lamblia: Hit Validation.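 Note: viability measured as ATP content by luminescence so killing lowers signal; trophozoites exposed to compounds for 48 h anaerobically at 37 °C; nearly all actives have a fitted effect of over 65% in size.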
- condition: Giardia lamblia trophozoite viability, dose-response; series mostly up to 38.3 µM
In all, about 1,300 compounds went through this assay and about 1,000 (77%) were called active. Inconclusive results (about 7%) are left out. The call rests on the fitted dose curve; in most records, active means well fitted inhibition curve with a large enough effect; inconclusive means small, poorly fitted or top-dose-only effect; inactive means no such curve, though single readings can be large or run the other way. The set was probably picked from earlier hits. The list shows a part of the results.
Give your call using only these classes: Y (active), N (inactive)

QUERY: What is the recorded call for this molecule in the test? Cc1nc2cc(-c3ccc(Cl)cc3)nn2c(NCCN(C)C)c1C
RESULT: Y

QUERY: Entry O=C(N/N=C/c1ccc([N+](=O)[O-])o1)C1CC1 please
RESULT: Y

QUERY: Entry O=C(Nc1ncc([N+](=O)[O-])s1)c1ccco1 please
RESULT: Y

QUERY: Entry Cc1cc(C)cc(N=c2c([N+](=O)[O-])nn(-c3ccc4c(c3)OCCO4)n2O)c1 please
RESULT: Y

QUERY: Entry c1cc(-c2cc3cc(N4CCOCC4)ccc3o2)cs1 please
RESULT: Y

QUERY: Entry Cc1oc2cc([N+](=O)[O-])c(O)c([N+](=O)[O-])c2c1C(=O)c1ccc(Cl)cc1 please
RESULT: Y

QUERY: Entry O=C(N/N=C/c1ccc([N+](=O)[O-])o1)C1CCCC1 please
RESULT: Y

QUERY: Entry O=C(c1ccco1)N1CCN(c2c([N+](=O)[O-])nn(-c3ccc(Cl)cc3)[n+]2[O-])CC1 please
RESULT: Y

QUERY: Entry O=[N+]([O-])c1nn(-c2ccc3c(c2)OCCO3)n(O)c1=NC1CCCCC1 please
RESULT: Y

QUERY: Entry COc1ccc(-n2nc([N+](=O)[O-])c(=NCCCN3CCCC3=O)n2O)cc1 please
RESULT: Y

QUERY: Entry Cc1ncc([N+](=O)[O-])n1CCOC(=O)c1cc(Cl)cc(Cl)c1N please
RESULT: Y

QUERY: Entry O=c1c2c(-c3ccccc3)csc2ncn1/N=C/c1ccc(O)c([N+](=O)[O-])c1 please
RESULT: Y

QUERY: Entry O=C(c1ccco1)N1CCN(c2c([N+](=O)[O-])nn(-c3cccc(Cl)c3)[n+]2[O-])CC1 please
RESULT: Y

QUERY: Entry Cc1cc(C)c2nc(NC(=O)c3ccc([N+](=O)[O-])o3)sc2c1 please
RESULT: Y

QUERY: Entry O=c1c2ccccc2nc(/C=C/c2ccc([N+](=O)[O-])o2)n1CCCO please
RESULT: Y

QUERY: Entry O=C(CSc1nnc(NC(=O)c2c(F)cccc2F)s1)Nc1ccc(F)cc1 please
RESULT: N

QUERY: Entry c1csc(-c2ccc(N3CCOCC3)nn2)c1 please
RESULT: Y

QUERY: Entry COC1C(OC(=O)/C=C/C=C/C=C/C=C/C(=O)O)CCC2(CO2)C1C1(C)OC1CC=C(C)C (configuration not stated) (tested in a mixture with another compound) please
RESULT: Y

QUERY: Entry Cc1nn2c3cc(N4CCOCC4)ccc3nc2c2ccccc12 please
RESULT: Y

QUERY: Entry Cc1cc(C)nc(N/N=C/c2ccc([N+](=O)[O-])o2)n1 please
RESULT: Y

QUERY: Entry N#Cc1c(N2CCN(c3ccc([N+](=O)[O-])cc3)CC2)[n+](=O)c2ccc(Cl)cc2n1[O-] please
RESULT: Y

QUERY: Entry Cc1ncc([N+](=O)[O-])n1CCOC(=O)c1ccc(Cl)cc1Cl please
RESULT: Y

QUERY: Entry c1ccc(-c2nc(-c3cnc4ccccc4n3)cs2)cc1 please
RESULT: Y

QUERY: Entry CCN(CC)CCCC(C)Nc1cc(/C=C/c2ccccc2Cl)nc2cc(Cl)ccc12 (configuration not stated) please
RESULT: Y

QUERY: Entry Cc1ccc(N=Nc2c(O)ccc3n[nH]nc23)cc1 please
RESULT: Y

QUERY: Entry Cc1noc(/C=C/c2cccnc2)c1[N+](=O)[O-] please
RESULT: Y

QUERY: Entry O=C(COC(=O)c1cc(Cl)ccc1O)NC(=O)NCc1ccccc1 please
RESULT: N

QUERY: Entry CC(NC(=O)Cn1cc(Br)c([N+](=O)[O-])n1)c1ccccc1 (configuration not stated) please
RESULT: Y

QUERY: Entry Cc1csc(NC(=O)c2cn3ccccc3n2)n1 please
RESULT: Y

QUERY: Entry COC(=O)c1ccc2cc(OC)cc([N+](=O)[O-])c2n1 please
RESULT: Y

QUERY: Entry N#Cc1c(Nc2ccccc2)[n+]([O-])c2ccc(Cl)cc2[n+]1[O-] please
RESULT: Y

QUERY: Entry CCN(C(=O)COC(=O)c1cc(S(=O)(=O)N2CCc3ccccc32)ccc1OC)C1CCS(=O)(=O)C1 (configuration not stated) please
RESULT: N

QUERY: Entry Cc1ccc(CNC(=O)c2cc(S(=O)(=O)N3CCOCC3)cn2C)cc1 please
RESULT: N

QUERY: Entry COc1cc2sc3cc(NCCCN4CCOCC4)ccc3c(=O)c2cc1OC please
RESULT: Y

QUERY: Entry Cc1ccc(NC(=O)C2CCN(S(=O)(=O)c3cc([N+](=O)[O-])ccc3Cl)CC2)nc1 please
RESULT: Y

QUERY: Entry Cc1ccc([N+](=O)[O-])cc1NC(=O)C1CCN(S(C)(=O)=O)CC1 please
RESULT: N

QUERY: Entry Cc1oc2cc([N+](=O)[O-])c(O)c([N+](=O)[O-])c2c1C(=O)c1ccc(Br)cc1 please
RESULT: Y

QUERY: Entry COc1ccc2nc3cc(Cl)ccc3c(Nc3ccc(O)c(CN4CCN(C)CC4)c3)c2c1 please
RESULT: Y

QUERY: Entry CCNc1nc(NCC)nc(N/N=C/c2ccc([N+](=O)[O-])o2)n1 please
RESULT: Y

QUERY: Entry COc1cccc(/C=C/c2ccc3ccccc3[n+]2C)c1OC please
RESULT: Y

QUERY: Entry O=[N+]([O-])/C(Cl)=C(/NCCO)C(Cl)=C(Cl)Cl please
RESULT: Y

QUERY: Entry O=C(Nc1ccccc1N1CCOCC1)c1ccc([N+](=O)[O-])s1 please
RESULT: Y
